meta.source: patent US8609680B2

# Target Desc: human GHSR1a (Homo sapiens)
# Construct: expressed in transfected cells; host or cells: HEK293 Tetracycline-Inducible cell line, used as membranes
# Measurement Description: Human Ghrelin Functional Assay (DELFIA GTP-binding assay)
# Assay type: biochemical
# Applied Conditions: GTP-Europium exchange, human GHSR1a membranes, with and without ghrelin at EC80

- Compound: "O=C(Cc1ccc(C2CC2)cn1)N1CCC2(CC1)CN([C@@H]1CCc3cc(-c4ncccn4)ccc31)C2"
  Target Desc: "human GHSR1a (Homo sapiens)"
  functional comment: "inverse agonist"
- Compound: "COc1ccc(CC(=O)N2CCC3(CC2)CN(C2CCc4cc(-c5nc(C)cc(C)n5)ccc42)C3)nc1 (racemic)"
  Target Desc: "human GHSR1a (Homo sapiens)"
  functional comment: "inverse agonist"
- Compound: "COc1ccc(CC(=O)N2CCC3(CC2)CN(C2CCc4cc(-c5cccc(C)n5)ccc42)C3)nc1 (racemic)"
  Target Desc: "human GHSR1a (Homo sapiens)"
  functional comment: "inverse agonist"
- Compound: "Cc1cc(-c2ccc3c(c2)CC[C@H]3N2CC3(CCN(C(=O)Cc4ccc5c(n4)OCCO5)CC3)C2)ncn1"
  Target Desc: "human GHSR1a (Homo sapiens)"
  functional comment: "inverse agonist"
- Compound: "Cc1nccc(-c2ccc3c(c2)CC[C@H]3N2CC3(CCN(C(=O)Cc4ccc5c(n4)OCCO5)CC3)C2)n1"
  Target Desc: "human GHSR1a (Homo sapiens)"
  functional comment: "inverse agonist"
- Compound: "Cc1cc(-c2ccc3c(c2)CC[C@H]3N2CC3(CCN(C(=O)Cc4cn5nc(C)sc5n4)CC3)C2)ncn1"
  Target Desc: "human GHSR1a (Homo sapiens)"
  functional comment: "inverse agonist"
- Compound: "Cc1cc(-c2ccc3c(c2)CC[C@H]3N2CC3(CCN(C(=O)Cc4cn5nc(C)sc5n4)CC3)C2)nc(C)n1"
  Target Desc: "human GHSR1a (Homo sapiens)"
  functional comment: "inverse agonist"

---

# Target Desc: human GHSR1a (Homo sapiens)
# Construct: expressed in transfected cells; host or cells: HEK293 Tetracycline-Inducible cell line, used as membranes
# Measurement Description: Human Ghrelin SPA Binding Assay
# Applied Conditions: SPA format, [125I] ghrelin displacement, human GHSR1a membranes from HEK293 Tetracycline-Inducible cell line

- Molecule: "Cc1cn2cc(CC(=O)N3CCC4(CC3)CN(C3CCc5cc(-c6ncccn6)ccc53)C4)nc2s1 (stereo not drawn)"
  Result Units: "nM"
  IC50: 3.79
- Molecule: "COc1ccc(CC(=O)N2CCC3(CC2)CN(C2CCc4cc(-c5nccs5)ccc42)C3)nc1 (stereo not drawn)"
  Result Units: "nM"
  IC50: 5.46
- Molecule: "Cc1cc(-c2ccc3c(c2)CC[C@H]3N2CC3(CCN(C(=O)Cc4cn5cc(C)sc5n4)CC3)C2)ncn1"
  Result Units: "nM"
  IC50: 5.02

---

# Target Desc: human GHSR1a (Homo sapiens, UniProt Q92847)
# Construct: expressed in transfected cells; host or cells: HEK293 Tetracycline-Inducible cell line, used as membranes
# Sequence (Q92847 whole entry): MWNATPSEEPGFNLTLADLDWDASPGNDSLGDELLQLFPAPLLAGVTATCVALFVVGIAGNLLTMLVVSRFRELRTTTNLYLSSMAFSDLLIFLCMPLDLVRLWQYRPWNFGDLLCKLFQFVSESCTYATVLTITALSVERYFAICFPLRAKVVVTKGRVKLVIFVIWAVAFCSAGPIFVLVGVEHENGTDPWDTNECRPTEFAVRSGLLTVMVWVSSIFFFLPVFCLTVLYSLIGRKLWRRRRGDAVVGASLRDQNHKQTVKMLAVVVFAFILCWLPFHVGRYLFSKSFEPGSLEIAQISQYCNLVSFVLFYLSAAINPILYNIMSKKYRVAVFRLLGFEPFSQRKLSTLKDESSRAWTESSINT
# Measurement Description: Human Ghrelin SPA Binding Assay
pKi: −log10 of the molar value.

- Compound: "O=C(Cc1ccc(C2CC2)cc1)N1CCC2(CC1)CN(C1CCc3cc(-c4ncccn4)ccc31)C2 (racemic) [Example 5A]"
  pKi: 8.21
- Compound: "O=C(Cc1cn(-c2ccccc2)cn1)N1CCC2(CC1)CN([C@@H]1CCc3cc(-c4ncccn4)ccc31)C2 [Example 3AV]"
  pKi: 6.70
- Compound: "Cc1nn2cc(CC(=O)N3CCC4(CC3)CN(C3CCc5cc(-n6nccn6)ccc53)C4)nc2s1 (stereo not shown) [Example 1H]"
  pKi: 7.98
- Compound: "Cc1cc(CC(=O)N2CCC3(CC2)CN([C@@H]2CCc4cc(-c5ncccn5)ccc42)C3)[nH]n1 [Example 3AX]"
  pKi: 6.16
- Compound: "COc1ccc(CC(=O)N2CCC3(CC2)CN(C2CCc4cc(-c5nccc(C)n5)ccc42)C3)cc1 (stereo not shown) [Example 1J]"
  pKi: 8.29
- Compound: "Cc1cc(-c2ccc3c(c2)CC[C@H]3N2CC3(CCN(C(=O)Cc4cn5cc(C)sc5n4)CC3)C2)ncn1 [Example 3F]"
  pKi: 8.36
- Compound: "CCc1ccc(CC(=O)N2CCC3(CC2)CN([C@@H]2CCc4cc(-c5ncccn5)ccc42)C3)nc1 [Example 5B]"
  pKi: 7.98
